Measured growth, listed per entry for reference.
# Test system: COLO 205 colon
# test: NCI-60 one-dose screen, 48 h (100 = growth as untreated, 0 = no growth, -100 = all killed)
# condition.details: 10 µM unless noted
The panel holds about 83,000 compounds, 20% with a hit somewhere; the sample as a whole holds those more often.
Kindly provide the numeric value in % only, without the unit symbol.

These solved cases illustrate the format of a correct answer.
[[record]]
compound = "CCOC(=O)c1c2c(cn1Cc1ccccc1)-c1oncc1CC2"
result_type = "growth"
observed_value = 123

[[record]]
compound = "COc1cc(-c2nn(-c3ccc(NC(=O)Nc4ccc(Cl)c(Cl)c4)cc3)cc2-c2ccncc2)ccc1Cl"
result_type = "growth"
observed_value = 20.1


Qu. Give a short answer stating reported growth for CN1C(=O)C(=Cc2coc3ccc(Br)cc3c2=O)C(=O)N(C)C1=O .
Ans. 106

Qu. Hello, please tell me recorded growth for this one: Cc1ccc(S(=O)(=O)NC(CCC(=O)Nc2ccccc2)C(=O)Nc2ccccc2)cc1 (centres undefined)
Ans. -22.6

Qu. Assign growth to the following record: Cc1ccc(C(=O)NN)cc1
Ans. 115

Qu. Complete the entry with growth for CCOc1nc(-c2ccccc2)cc2c(O)c(C(=O)N/N=C/c3ccccc3O)[nH]c(=O)c12
Ans. 105

Source of measurements: PubChem BioAssay (NCI)
